All values here come from patent US20210221899A1.

study target: T1, human NGF (human, UniProt P01138 122-241)
T1 construct: also called human Nerve Growth Factor; hN
T1 chain: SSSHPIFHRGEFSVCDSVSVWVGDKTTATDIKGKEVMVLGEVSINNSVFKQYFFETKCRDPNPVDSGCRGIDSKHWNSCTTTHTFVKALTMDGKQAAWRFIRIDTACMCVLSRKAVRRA
assay procedure: SPR (Biacore T200), 100 nM mAb on NGF chip, similarity to parent mAb
measured metric: Percent Similarity Score (KD on hN) (%)
Numbers only, in %.

Record excerpt, results attached:
{"columns": ["binder", "measurement units", "Percent Similarity Score (KD on hN)"],
 "data": [
  ["can9L12VL_I29A (antibody, V domains shown) VH: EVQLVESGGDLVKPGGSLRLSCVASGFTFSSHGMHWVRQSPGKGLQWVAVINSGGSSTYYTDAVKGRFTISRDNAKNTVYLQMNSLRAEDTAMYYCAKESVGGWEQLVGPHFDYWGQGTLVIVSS VL: QSVLTQPTSVSGSLGQRVTISCSGSTNNAGILGASWYQLFPGKAPKLLVYGNGNRPSGVPDRFSGADSGDSVTLTITGLQAEDEADYYCQSFDTTLGAHVFGGGTHLTVL", "%", 1.5],
  ["can9L12VH_E99A (antibody, V domains shown) VH: EVQLVESGGDLVKPGGSLRLSCVASGFTFSSHGMHWVRQSPGKGLQWVAVINSGGSSTYYTDAVKGRFTISRDNAKNTVYLQMNSLRAEDTAMYYCAKASVGGWEQLVGPHFDYWGQGTLVIVSS VL: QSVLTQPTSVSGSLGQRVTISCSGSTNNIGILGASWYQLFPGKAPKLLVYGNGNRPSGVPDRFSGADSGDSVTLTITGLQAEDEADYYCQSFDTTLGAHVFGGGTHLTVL", "%", 82]
]}

Shift focus to the following entry.
In plain terms, can9L12VL_N27A (antibody, V domains shown) VH: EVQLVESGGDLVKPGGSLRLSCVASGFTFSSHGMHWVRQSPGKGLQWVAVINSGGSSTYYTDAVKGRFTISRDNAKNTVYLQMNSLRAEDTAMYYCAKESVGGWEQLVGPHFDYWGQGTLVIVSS VL: QSVLTQPTSVSGSLGQRVTISCSGSTANIGILGASWYQLFPGKAPKLLVYGNGNRPSGVPDRFSGADSGDSVTLTITGLQAEDEADYYCQSFDTTLGAHVFGGGTHLTVL has a documented Percent Similarity Score (KD on hN) of 100
